- Test system: human A375 cells
- assay-text: Protection of melanocytes from tunicamycin (ER stress) induced cell death, MTT assay, A375
- Format: cell-based
- condition: compound at 25-30 μM, 6 h pretreatment, tunicamycin 100 ng/ml, total 72 h, cell growth over tunicamycin treatment
assay-endpoint: % Recovery (%)

>>> df
                              line_notation  assay_endpoint  value_observed
0   CC(C)CC(=O)NCCc1c[nH]c(-c2ccc(Cl)cc2)n1      % Recovery              56
1  CC(C)OCCCNC(=O)Cc1c[nH]c(-c2ccc(Cl)cc2)n1      % Recovery              17
2  O=C(NCCc1c[nH]c(-c2ccc(Cl)cc2)n1)C12CC3CC(CC(C3)C1)C2      % Recovery              65
3  O=C(NCCc1c[nH]c(-c2ccc(Cl)cc2)n1)C1=CCCC1      % Recovery              59
4  CC(C)(C)CC(=O)NCCc1c[nH]c(-c2ccc(Cl)cc2)n1      % Recovery              57
5  O=C(NCCc1c[nH]c(-c2ccc(Cl)cc2)n1)c1ccc(F)cc1      % Recovery              50
6    CCCCCC(=O)NCCc1c[nH]c(-c2ccc(Cl)cc2)n1      % Recovery              54
7  O=C(Cc1c[nH]c(-c2ccc(Cl)cc2)n1)Nc1ccc(C(F)(F)F)cc1      % Recovery              36
8  O=C(NCCc1c[nH]c(-c2ccc(Cl)cc2)n1)c1ccc(C(F)(F)F)cc1      % Recovery              65

----------
% Recovery overview
- Tested on: human A375 cells
- assay-text: Protection of melanocytes from tunicamycin (ER stress) induced cell death, MTT assay, A375
- Type: cell-based
- condition: compound at 25-30 μM, 6 h pretreatment, tunicamycin 100 ng/ml, total 72 h, cell growth over tunicamycin treatment
assay-endpoint: % Recovery

>>> df
                              line_notation  value_observed
0  O=C(Cc1c[nH]c(-c2ccc(Cl)cc2)n1)NCCN1CCOCC1             13%
1  O=C(NCCc1c[nH]c(-c2ccc(Cl)cc2)n1)c1cc(F)cc(F)c1             58%
2  CCCCCCCC(=O)NCCc1c[nH]c(-c2ccc(Cl)cc2)n1             42%
3      CCCCNC(=O)Cc1c[nH]c(-c2ccc(Cl)cc2)n1             32%
4    O=C(Cc1c[nH]c(-c2ccc(Cl)cc2)n1)N1CCCC1             17%
5  O=C(NCCc1c[nH]c(-c2ccc(Cl)cc2Cl)n1)c1ccc(C(F)(F)F)cc1             44%
6  O=C(NCCc1c[nH]c(-c2ccc(Cl)cc2Cl)n1)c1ccc(F)cc1             44%
7      CCCC(=O)NCCc1c[nH]c(-c2ccc(Cl)cc2)n1             22%
8  O=C(NCCc1c[nH]c(-c2ccc(Cl)cc2Cl)n1)c1cc(F)cc(F)c1             39%
